# Test system: PMEL17
# assay-procedure: Cross-reactivity (cross-specificity profile) of anti-PMEL17 IgGs in dose response FACS
# Format: binding
# Set-up: key: h/c/r/m: human/cyno/rat/mouse; h/c/r: human/cyno/rat; h/c/(m): human/cyno/mouse; h/c: human/cyno
# conditions-used: h human, c cyno, r rat, m mouse
# Procedure: The cross-specificity of the IgGs was evaluated in does response FACS on G-361 (human melanoma), HKB11-cyno-PMEL17, HKB11-rat PMEL17 and B16-F10 (mouse PMEL17 expressing melanoma) (Table 3). Testing on G-361 was performed using a detection antibody labelled to PE. In contrast, an Alexa-Fluor labelled detection antibody had to be used for testing the candidates on the other cell lines so as to reach detectable signals. […]
measure-name: Cross spe profile (based on C14 detection ab)

1) MOR024353: anti-PMEL17 antibody (IgG) (antibody, V domains shown) VH: QVQLVQSGAEVKKPGSSVKVSCKASGGTFSDYAISWVRQAPGQGLEWMGGIIPIFGDANYAQKFQGRVTITADESTSTAYMELSSLRSEDTAVYYCAREGSSYFYMAYWGQGTLVTVSS VL: SYELTQPLSVSVALGQTARITCSGDNIGSKLASWYQQKPGQAPVLVIYDDSNRPSGIPERFSGSNSGNTATLTISRAQAGDEADYYCAATAGDRWAYVFGGGTKLTVL; h/c
